TARGET_ENTITY: 5-hydroxytryptamine receptor 1A (Homo sapiens)
RUN_DESCRIPTION: Biased agonist activity at human recombinant 5-HT1A receptor stably expressed in CHO-K1 cells assessed as inhibition of forskolin-induced cAMP accumulation after 40 mins by LANCE Ultra cAMP kit-based TR-FRET assay relative to serotonin
Format: functional, cell-based
SETTINGS: filed as agonist
Could you label it class 1 if measured Emax is 90% or higher, and class 0 otherwise?

Reference set, count: 3
# STRUCTURE_AS_SMILES, TARGET_ENTITY, CLASSIFICATION
measured = [
    ("O=C(c1ccc(F)c(Cl)c1)N1CCC(F)(CNCCOc2cccnc2)CC1", "5-hydroxytryptamine receptor 1A (Homo sapiens)", "class 1"),
    ("O=C(c1ccc(Cl)c(Cl)c1)N1CCC(F)(CNCCOc2ccccn2)CC1", "5-hydroxytryptamine receptor 1A (Homo sapiens)", "class 0"),
    ("O=C(c1ccc(F)c(Cl)c1)N1CCC(F)(CNCCSc2ccccn2)CC1", "5-hydroxytryptamine receptor 1A (Homo sapiens)", "class 0"),
]

In: Is Emax for O=C(c1ccc(F)c(Cl)c1)N1CCC(F)(CNCCNc2ccccc2)CC1 at or above 90%?
Out: class 0

In: Is Emax for O=C(c1ccc(F)c(Cl)c1)N1CCC(F)(CNCCNc2ccccn2)CC1 at or above 90%?
Out: class 0

----------
RUN_DESCRIPTION: Apparent volume of distribution during terminal phase in Wistar rat at […], po measured after 60 mins by HPLC analysis
Assay type: ADME, organism-based
SETTINGS: in vivo, dose 2.5 mg/kg, read-out: Vz/F
MEASURED_PARAMETER: Vd/F at 1 h (L/kg)
Response body: numeric value in L/kg, unit text excluded.

In: Which Vd/F at 1 h is listed for O=C(c1ccc(F)c(Cl)c1)N1CCC(F)(CNCCOc2ccccn2)CC1 ?
Out: 35.9

----------
TARGET_ENTITY: hERG (KCNH2) (Homo sapiens)
Sequence (Q12809 whole entry): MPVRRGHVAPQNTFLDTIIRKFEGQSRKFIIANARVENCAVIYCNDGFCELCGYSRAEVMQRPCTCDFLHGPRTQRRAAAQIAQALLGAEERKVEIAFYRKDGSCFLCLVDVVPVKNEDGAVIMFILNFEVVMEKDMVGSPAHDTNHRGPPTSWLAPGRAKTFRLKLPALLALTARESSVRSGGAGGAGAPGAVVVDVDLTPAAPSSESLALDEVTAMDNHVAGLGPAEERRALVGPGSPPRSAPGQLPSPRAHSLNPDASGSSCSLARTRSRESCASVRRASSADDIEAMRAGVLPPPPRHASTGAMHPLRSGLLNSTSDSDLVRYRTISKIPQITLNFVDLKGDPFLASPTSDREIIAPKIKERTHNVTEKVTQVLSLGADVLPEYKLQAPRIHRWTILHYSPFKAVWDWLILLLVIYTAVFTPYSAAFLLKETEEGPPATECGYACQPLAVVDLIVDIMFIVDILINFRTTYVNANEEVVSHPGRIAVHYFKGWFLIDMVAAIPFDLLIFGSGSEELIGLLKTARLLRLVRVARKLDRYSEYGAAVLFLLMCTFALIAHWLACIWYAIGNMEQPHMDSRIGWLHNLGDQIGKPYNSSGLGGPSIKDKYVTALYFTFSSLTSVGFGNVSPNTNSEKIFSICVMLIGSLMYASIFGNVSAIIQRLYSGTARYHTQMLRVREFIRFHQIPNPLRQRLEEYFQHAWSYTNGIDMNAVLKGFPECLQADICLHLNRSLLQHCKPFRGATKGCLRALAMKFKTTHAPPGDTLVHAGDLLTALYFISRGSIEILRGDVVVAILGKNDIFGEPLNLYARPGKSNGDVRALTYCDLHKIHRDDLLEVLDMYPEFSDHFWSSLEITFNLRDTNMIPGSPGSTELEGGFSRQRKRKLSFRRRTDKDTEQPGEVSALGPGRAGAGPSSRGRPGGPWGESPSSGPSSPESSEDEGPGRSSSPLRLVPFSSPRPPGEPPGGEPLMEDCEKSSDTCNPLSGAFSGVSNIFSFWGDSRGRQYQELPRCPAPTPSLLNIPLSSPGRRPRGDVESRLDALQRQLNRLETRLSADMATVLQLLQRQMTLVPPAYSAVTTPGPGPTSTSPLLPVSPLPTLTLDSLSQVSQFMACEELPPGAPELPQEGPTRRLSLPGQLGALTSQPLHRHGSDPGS
RUN_DESCRIPTION: Inhibition of human ERG at 0.1 uM by patch clamp technique relative to control
MEASURED_PARAMETER: inhibition at 0.1 µM (%)
Response body: numeric value in %, unit text excluded.

In: Lookup: inhibition at 0.1 µM / hERG (KCNH2) (Homo sapiens) / O=C(c1ccc(F)c(Cl)c1)N1CCC(F)(CNCCOc2ccccn2)CC1
Out: 0.1
